Recorded values, source PubChem BioAssay.

# Lookup of reported z-score keyed by entry
# protocol-details: cell viability in Huh7 cells, primary screen, cytotoxicity control for HCV replication inhibitor project, CellTiter-Glo luminescence, basal, 48 h (AID 1143);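 further: Huh7 hepatoma cells carrying a hepatitis C replication reporter with no stimulus; test concentration not given here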
# assay-context: Huh7 HCV replicon, higher = more signal, called active from +8 up or from −8 down
measured-quantity: z-score

INSERT INTO measurements (molecule, value_measured) VALUES
  ('COC(=O)C1=CC(CCCO)=CC(C)N(Cc2cccc(OC(F)(F)F)c2)C=C1C(=O)OC (centres undefined)', -1.07),
  ('CCCNC(=O)[C@@]1(Sc2ccc(C)cc2)CC(=O)N(C2CCCCC2)[C@@H]1c1ccc(CO)cc1I', -2.76),
  ('CCOC(=O)C1=CC[C@@H](c2ccccc2)N(S(=O)(=O)c2ccc(C)cc2)[C@H]1C=Cc1ccccc1', -2.35),
  ('C=CCC(OC(C)=O)[C@@H]1[C@@H](N(Cc2ccc(-c3cccc(C(F)(F)F)c3)o2)C(=O)c2ccc(C)cc2)c2cc(OCCCO)ccc2N1C(=O)Cc1ccc(OC)cc1 (some centres undefined)', -0.159),
  ('NC(=O)[C@H]1[C@@H]2C(=O)O[C@@H](c3ccccc3)[C@@H](c3ccccc3)N2[C@@H](c2ccc(O)cc2)[C@]12C(=O)Nc1ccc(C#CC3=CCCCC3)cc12', -3.73),
  ('COC(=O)C(CC#Cc1ccc2c(c1)[C@]1(C(=O)N2)[C@H](C(=O)Nc2nc3ccccc3s2)[C@H]2C(=O)O[C@H](c3ccccc3)[C@H](c3ccccc3)N2[C@@H]1c1ccc(OCCO)cc1)C(=O)OC', -2.48),
  ('COCC(=C=CC[C@@H](O)c1cccc(OCCO)c1)CCO', -0.35),
  ('CCCNC(=O)[C@@]1(C)c2ccccc2C(=O)N(Cc2ccccc2)[C@H]1c1ccc(CO)cc1', -0.535),
  ('COc1ccc(C(=O)Nc2cccc(CN3C(=O)[C@@]4(O[C@@H](CC(=O)N(CCO)Cc5ccccc5)[C@H]([Si](C)(C)c5ccc(OC)cc5)[C@H]4C)c4ccccc43)c2)cc1', -4.44),
  ('COc1ccc(NC(=O)O[C@H]2[C@@H]3OC(=O)[C@H](Cc4cccc(Br)c4)C/C=C/C[C@@H](Cc4cccc(Br)c4)C(=O)O[C@H]3[C@@H](OC)O[C@@H]2CO)cc1', -0.878),
  ('CO[C@H]1O[C@H](CO)[C@@H](OC(=O)c2ccc(Br)cc2)[C@@H]2OC(=O)[C@H](Cc3ccccc3)C/C=C/C[C@@H](Cc3ccccc3)C(=O)O[C@@H]12', -3.95),
  ('COc1ccc([Si](C)(C)[C@H]2[C@H](CCO)O[C@@]3(C(=O)N(Cc4ccccc4)c4ccc(N5C(=O)c6ccccc6Oc6ccccc65)cc43)[C@@H]2C)cc1', -6.59),
  ('[N-]=[N+]=NC[C@H](Cc1ccccc1)NC(=O)c1ccccc1', -0.34),
  ('Cc1ccccc1C(O)C1C=CC2C(=O)NC(=O)C2N1Nc1ccc(Cl)cc1Cl (centres undefined)', -0.702),
  ('C=C(C(=O)CC[C@@H](OC(=O)c1ccccc1-c1ccccc1C(=O)O)c1ccccc1OCCO)C(C)C', 0.182),
  ('O=C(O)[C@@H]1C[C@@H]2C(=O)N3CCC[C@H]3C(=O)N2[C@@H]1c1cccc(OCCO)c1', -0.0592),
  ('O=C1O[C@H](c2ccccc2)[C@H](c2ccccc2)N2[C@H]1[C@@H](C(=O)O)[C@]1(C(=O)Nc3ccc(C#CC4(O)CCCCCC4)cc31)[C@H]2c1ccc(O)cc1', -3.06),
  ('O=C1O[C@H](c2ccccc2)[C@H](c2ccccc2)N2[C@H]1[C@@H](C(=O)N1CCCCCCC1)[C@]1(C(=O)Nc3ccc(C#CC4(O)CCCCCC4)cc31)[C@H]2c1ccc(O)cc1', -3.1),
  ('CN(C)CCCCCCNC(=O)[C@@H]1C[C@@H]2C(=O)N[C@@H](CCCCN)C(=O)N2[C@@H]1c1ccc(O)cc1', -1.9),
  ('COCCOC(=O)N1C(=O)[C@@]2(c3cc(C#CCCO)ccc31)[C@H](c1ccccc1OCCO)N1[C@H](c3ccccc3)[C@H](c3ccccc3)OC(=O)[C@H]1[C@@H]2C(=O)N1CCCCCCC1', -3.64),
  ('Cc1ccc([C@H]2C(C(=O)O)=C[C@@H](C(C)(C)C)N2S(=O)(=O)c2ccc(C)cc2)cc1', -0.117),
  ('O=C1NC(=O)C2C1C=CC(C(O)c1ccccn1)N2Nc1ccc(Cl)cc1Cl (centres undefined)', 0.203),
  ('CC(C)C(=C=CC[C@H](O)c1cccc(OCCO)c1)CCO', -1.25),
  ('C=C(C)C1CCC(C(O)C2C=CC3C(=O)N(C)C(=O)C3N2Nc2cc(OC)c(OC)c(OC)c2)CC1 (centres undefined)', 0.454),
  ('CCOC(=O)C1=C[C@@H](C(C)(C)C)N(S(=O)(=O)c2ccc(C)cc2)[C@H]1c1ccccc1', -4.44),
  ('CC(C)OC(=O)CC(=O)CC(O)c1ccc([N+](=O)[O-])cc1 (centres undefined)', -0.824),
  ('O=C1N(CCS(=O)(=O)c2ccccc2)Cc2ccccc2[C@@H]2OC(c3ccc(OCCCO)cc3)=N[C@]12CCS(=O)(=O)c1ccccc1', -1.5),
  ('Cc1nc2cc(Br)ccc2c(=O)n1Cc1cccc(O)c1', 0.267),
  ('CCOC(=O)C[C@H]1[C@H](OC(=O)c2ccccc2-c2ccccc2)[C@@H](NC(=O)c2ccc3ccccc3n2)c2cc(OCCCO)ccc2N1C(=O)c1ccccc1', -0.0416);
